Hey, just so you know, these numbers are from PubChem BioAssay (NCI).

Consider the following GI50 values measured on MDA-MB-231 breast.
endpoint_label: GI50

CCOc1ccc(Cc2nccc3cc(OCC)c(OCC)cc23)cc1OCC; 4.02 µM
CC/C(=N\Nc1nc2ccccc2n1C)c1ccccn1; 0.14 µM
COc1ccc2c(c1)C(=O)c1c-2n(CCCN=[N+]=[N-])c(=O)c2ccccc12; > 100 µM
N/C(=N\O)c1ncc(-c2ccc(C(F)(F)F)cc2)c(NC2CCCCCC2)n1; 3.96 µM
CSC1=Nc2c(c(C)c(-c3ccccc3)n2COC(CO)CO)C2=NC(=O)C(C)N12 (centres undefined); > 100 µM
CC1=C(N2CC2)C(=O)C(CO)=C(N2CC2)C1=O; 0.14 µM
Clc1ccc(-c2nc3c(-c4ccc(Cl)cc4)nc(-c4ccccc4)cn3c2-c2ccc(Cl)cc2)cc1; 27.9 µM
CCCc1cc(=O)oc2c(C(=O)CC(C)C)c(O)c(CC=C(C)C)c(O)c12; 9.81 µM
O=C(N[C@H](c1ccc(Cl)c(Cl)c1)C1CNC1)c1ccc2cnccc2c1; 3.36 µM
